- Test system: 4T1
- protocolText: % inhibition of 4T1 cell number vs DMSO control; higher = stronger growth inhibition
- measurementParameters: 1 µM; 3 days; substrate: plastic
propertyMeasured: % inhibition of 4T1 cell number (%)
Write the value in % as a bare number.

Q. Endpoint output: % inhibition of 4T1 cell number of `O=C1NC(=O)/C(=C/c2ccc3c(c2)OC(F)(F)O3)S1` . Value?
A. 37.8

Q. Endpoint output: % inhibition of 4T1 cell number of `O=C1C(Cl)=C(N2C(=O)CCC2=O)C(=O)c2ccccc21` . Value?
A. -66.5

Q. Endpoint output: % inhibition of 4T1 cell number of `O=C(Nc1cc(C(F)(F)F)cc(C(F)(F)F)c1)c1cc(Cl)ccc1O` . Value?
A. 94.5

Q. Endpoint output: % inhibition of 4T1 cell number of `N#CCCc1ccc2c(c1)-c1[nH]c3ccc([N+](=O)[O-])cc3c1CC(=O)N2` . Value?
A. 72.9

Q. Endpoint output: % inhibition of 4T1 cell number of `c1cc(-c2cnn3cc(-c4ccc(OCCN5CCCCC5)cc4)cnc23)ccn1` . Value?
A. 52.8

Q. Endpoint output: % inhibition of 4T1 cell number of `CCN(CC)CCCCN1c2ccccc2Oc2ccc(Cl)cc21` . Value?
A. 40

* * *

Kindly supply the reported % inhibition of 4T1 cell number values for the records listed here.
- System: 4T1
- protocolText: % inhibition of 4T1 cell number vs DMSO control; higher = stronger growth inhibition
- measurementParameters: 1 µM; 3 days; substrate: Matrigel
Write the value in % as a bare number.

Q. Endpoint output: % inhibition of 4T1 cell number of `CCCCn1c2ccc(O)cc2c2c3c(c(-c4ccccc4Cl)cc21)C(=O)NC3=O` . Value?
A. 52.6

Q. Endpoint output: % inhibition of 4T1 cell number of `c1nc2c(NC3CCCCC3)nc(Nc3ccc(N4CCOCC4)cc3)nc2[nH]1` . Value?
A. 91

Q. Endpoint output: % inhibition of 4T1 cell number of `COc1ccc(CNC(=O)Nc2ncc([N+](=O)[O-])s2)cc1` . Value?
A. -53.9

Q. Endpoint output: % inhibition of 4T1 cell number of O=C1NC(=O)c2c1c1c3ccccc3[nH]c1n1cncc21 [Isogranulatimide] . Value?
A. -41.6

Q. Endpoint output: % inhibition of 4T1 cell number of `CN(C)S(=O)(=O)c1ccc2c(c1)/C(=C/c1cc3c([nH]1)CCCC3)C(=O)N2` . Value?
A. -10.2

Q. Endpoint output: % inhibition of 4T1 cell number of `Nc1n[nH]c(N)c1N=Nc1ccc(O)cc1` . Value?
A. 11

Q. Endpoint output: % inhibition of 4T1 cell number of CN1C(=O)C(c2c[nH]c3ccccc23)=C(c2c[nH]c3ccccc23)C1=O [Bisindolylmaleimide V] . Value?
A. 82.1

Q. Endpoint output: % inhibition of 4T1 cell number of `Oc1ccc(-c2nc(-c3ccc(F)cc3)c(-c3ccncc3)[nH]2)cc1` . Value?
A. 19.2

Q. Endpoint output: % inhibition of 4T1 cell number of `Cc1cc(C=C2C(=O)C=CC2=O)cc(C)c1O` . Value?
A. 32.9

Q. Endpoint output: % inhibition of 4T1 cell number of C[C@@H](N)C1CCC(C(=O)Nc2ccncc2)CC1 (some centres not stated) . Value?
A. -13.2

Q. Endpoint output: % inhibition of 4T1 cell number of `COc1cc2ncnc(N3CCN(C(=O)Nc4ccc(Oc5ccccc5)cc4)CC3)c2cc1OC` . Value?
A. -4.76

Q. Endpoint output: % inhibition of 4T1 cell number of O=C1Nc2ccc(Cl)cc2/C1=C/c1cc(Cl)c(O)c(Cl)c1 [PKR Inhibitor, Negative Control] . Value?
A. -11.8
